Assay: Displacement of [3H]-Nisoxetine from NET in rabbit cortical membrane
Assay type: cell membranes, Oryctolagus cuniculus
pKi: −log10 of the molar value.
Is pKi at least 7? Then label 1. If not, label 0.

Answered examples (3):
CNCC[C@@H](Oc1ccc(C(F)(F)F)cc1)c1ccccc1 [R-FLUOXETINE]	label 0
Fc1ccc(C2CCNC/C2=N/OCc2ccccc2Cl)cc1 (racemic)	label 0
FC(F)(F)c1ccc(C2CCNC/C2=N/OCc2ccccc2Cl)cc1 (racemic)	label 0

## Task Would you say CNCCC(Oc1ccccc1OC)c1ccccc1 (stereo not given) [NISOXETINE] shows pKi at minimum 7?
## Result label 1

----------
Assay: Displacement of [3H]-WIN 35,428 from DAT in rabbit striatal membrane
Format: cell membranes, Oryctolagus cuniculus, Striatum
reported property: pKi
One number for each entry, as −log10 of the molar value.

Fc1ccc(CO/N=C2\CNCCC2c2ccc(C(F)(F)F)cc2)cc1 (racemic)	5.55

Switching to the query record.
## Task // fetch pKi given entry Fc1ccc(C(OCCN2CCN(CCCc3ccccc3)CC2)c2ccc(F)cc2)cc1 [VANOXERINE]
## Result 8.82

----------
Species on record: Oryctolagus cuniculus
Assay: Ratio of Ki for DAT in rabbit striatal membrane to Ki for SERT in rabbit cortical membrane
Assay type: cell membranes
reported property: Ratio Ki
Answers are plain numbers.

Fc1ccc(CO/N=C2/CNCCC2c2ccc(F)cc2)cc1 (racemic)	329

For every listed record, write down its Ratio Ki.
1. Fc1ccc(CO/N=C2\CNCCC2c2ccc(C(F)(F)F)cc2)cc1 (racemic)
2. CNCC[C@@H](Oc1ccc(C(F)(F)F)cc1)c1ccccc1
3. Fc1ccc([C@@H]2CCNC[C@H]2COc2ccc3c(c2)OCO3)cc1

## Result
1. 7
2. 670
3. 2480

For every listed record, write down its Ratio Ki.
1. Fc1ccc(CO/N=C2\CNCCC2c2ccc(F)cc2)cc1 (racemic)
2. Fc1ccc(C2CCNC/C2=N\OCc2ccc(C(F)(F)F)cc2)cc1 (racemic)

## Result
10
45

----------
Test: Displacement of [3H]-Nisoxetine from NET in rabbit cortical membrane
Format: cell membranes, Oryctolagus cuniculus
reported property: pKi
Numbers only, as −log10 of the molar value.

Fc1ccc(CO/N=C2/CNCCC2c2ccc(C(F)(F)F)cc2)cc1 (stereo not drawn)	5.03
Fc1ccc(C2CCNC/C2=N/OCc2ccc(C(F)(F)F)cc2)cc1 (racemic)	4.71

## Task // fetch pKi given entry Fc1ccc(CO/N=C2/CNCCC2c2ccc(F)cc2)cc1 (racemic)
## Result 4.87

----------
Experiment: Displacement of [3H]-paroxetine from SERT in rabbit cortical membrane
Type: cell membranes, Oryctolagus cuniculus
Binarize Ki at 80 nM; below is Yes, at or above is No.

## Task Input FC(F)(F)c1ccc(C2CCNC/C2=N\OCc2ccccc2Cl)cc1 (racemic) ; condition: Ki strictly below 80 nM. Does it hold?
## Result No

## Task Input Fc1ccc(C2CCNC/C2=N/OCc2ccccc2Cl)cc1 (racemic) ; condition: Ki strictly below 80 nM. Does it hold?
## Result Yes

## Task Input FC(F)(F)c1ccc(C2CCNC/C2=N/OCc2ccccc2Cl)cc1 (racemic) ; condition: Ki strictly below 80 nM. Does it hold?
## Result Yes

## Task Input Fc1ccc(C2CCNC/C2=N/OCc2ccc(C(F)(F)F)cc2)cc1 (racemic) ; condition: Ki strictly below 80 nM. Does it hold?
## Result No

----------
Organism: Oryctolagus cuniculus
Assay: Ratio of Ki for NET in rabbit cortical membrane to Ki for SERT in rabbit cortical membrane
Format: cell membranes
Is Ratio Ki at least 500? Then fulfilled. If not, not fulfilled.

Answered examples (5):
CNCC[C@@H](Oc1ccc(C(F)(F)F)cc1)c1ccccc1	not fulfilled
Fc1ccc(CO/N=C2/CNCCC2c2ccc(F)cc2)cc1 (racemic)	not fulfilled
Fc1ccc([C@@H]2CCNC[C@H]2COc2ccc3c(c2)OCO3)cc1	not fulfilled
Fc1ccc(C2CCNC/C2=N/OCc2ccc(C(F)(F)F)cc2)cc1 (racemic)	not fulfilled
FC(F)(F)c1ccc(C2CCNC/C2=N/OCc2ccccc2Cl)cc1 (racemic)	fulfilled

## Task Would you say Fc1ccc(CO/N=C2/CNCCC2c2ccc(C(F)(F)F)cc2)cc1 (configuration not stated) shows Ratio Ki at minimum 500?
## Result not fulfilled

----------
So I've got a bunch of molecules here, and I need their pKi values.
Assay: Displacement of [3H]-WIN 35,428 from DAT in rabbit striatal membrane
Assay type: cell membranes, Oryctolagus cuniculus, Striatum
One number for each entry, as −log10 of the molar value.

Fc1ccc([C@@H]2CCNC[C@H]2COc2ccc3c(c2)OCO3)cc1	6.11

For every listed record, write down its pKi.
1. Fc1ccc(C2CCNC/C2=N\OCc2ccc(C(F)(F)F)cc2)cc1 (racemic)
2. Fc1ccc(CO/N=C2/CNCCC2c2ccc(F)cc2)cc1 (racemic)
3. Fc1ccc(C2CCNC/C2=N\OCc2ccccc2Cl)cc1 (racemic)
4. Fc1ccc(C2CCNC/C2=N/OCc2ccccc2Cl)cc1 (racemic)
5. FC(F)(F)c1ccc(C2CCNC/C2=N\OCc2ccccc2Cl)cc1 (racemic)
6. CNCC[C@@H](Oc1ccc(C(F)(F)F)cc1)c1ccccc1
7. Fc1ccc(CO/N=C2\CNCCC2c2ccc(F)cc2)cc1 (racemic)

## Result
5.21
5.02
5.42
4.89
5.38
5.40
5.50

----------
Organism: Oryctolagus cuniculus
Test: Ratio of Ki for DAT in rabbit striatal membrane to Ki for SERT in rabbit cortical membrane
Type: cell membranes
reported property: Ratio Ki
One number for each entry.

Known results for compounds:
Fc1ccc(C2CCNC/C2=N\OCc2ccccc2Cl)cc1 (racemic)	47
Fc1ccc(C2CCNC/C2=N/OCc2ccccc2Cl)cc1 (racemic)	571

## Task // fetch Ratio Ki given entry FC(F)(F)c1ccc(C2CCNC/C2=N\OCc2ccccc2Cl)cc1 (racemic)
## Result 43

----------
So I've got a bunch of compounds here, and I need their pKi values.
Assay: Displacement of [3H]-paroxetine from SERT in rabbit cortical membrane
Type: cell membranes, Oryctolagus cuniculus
Give bare numbers, as −log10 of the molar value.

Known results for compounds:
Fc1ccc(C2CCNC/C2=N\OCc2ccccc2Cl)cc1 (racemic)	7.09
Fc1ccc(CO/N=C2/CNCCC2c2ccc(C(F)(F)F)cc2)cc1 (stereo not drawn)	7.01

For every listed record, write down its pKi.
1. Fc1ccc(CO/N=C2\CNCCC2c2ccc(F)cc2)cc1 (racemic)
2. CNCC[C@@H](Oc1ccc(C(F)(F)F)cc1)c1ccccc1 [R-FLUOXETINE]
3. Fc1ccc(C2CCNC/C2=N\OCc2ccc(C(F)(F)F)cc2)cc1 (racemic)
4. Fc1ccc(CO/N=C2/CNCCC2c2ccc(F)cc2)cc1 (racemic)

## Result
[6.51, 8.24, 6.86, 7.54]

For every listed record, write down its pKi.
1. Fc1ccc(CO/N=C2\CNCCC2c2ccc(C(F)(F)F)cc2)cc1 (racemic)
2. Fc1ccc([C@@H]2CCNC[C@H]2COc2ccc3c(c2)OCO3)cc1 [PAROXETINE]

## Result
6.40
9.51
